Excerpt: The following compounds were used as chelating agents in manufacture of cleaning liquids.
reported.endpoint: pKa1

{"columns": ["smiles", "result.number"],
 "data": [
  ["N=C(N)NCCC[C@H](N)C(=O)O", 1.82],
  ["NCC(=O)O", 2.35],
  ["O=C(O)CN(CCN(CC(=O)O)CC(=O)O)CCN(CC(=O)O)CC(=O)O", 2.14],
  ["O=P(O)(O)CN(CCN(CP(=O)(O)O)CP(=O)(O)O)CP(=O)(O)O", 1.46],
  ["CC(O)(P(=O)(O)O)P(=O)(O)O", 1.35],
  ["NCCC(=O)O", 2.35],
  ["O=C(O)CN(CCN(CC(=O)O)CC(=O)O)CC(=O)O", 2.00]
]}

----------
{"columns": ["smiles", "pKa3"],
 "data": [
  ["O=P(O)(O)CN(CCN(CP(=O)(O)O)CP(=O)(O)O)CP(=O)(O)O", 5.06],
  ["O=C(O)CN(CCN(CC(=O)O)CC(=O)O)CC(=O)O", 6.2],
  ["O=C(O)CN(CCN(CC(=O)O)CC(=O)O)CCN(CC(=O)O)CC(=O)O", 4.26],
  ["N=C(N)NCCC[C@H](N)C(=O)O", 12.48],
  ["O=C(O)CC(O)(CC(=O)O)C(=O)O", 6.71],
  ["CC(O)(P(=O)(O)O)P(=O)(O)O", 7.03]
]}
